- Test Target: HDM2 (Homo sapiens, UniProt Q00987)
- Construct: Recombinant HDM2 (1.5 μg per well) in TBS-BSA buffer
- Sequence (Q00987 whole entry): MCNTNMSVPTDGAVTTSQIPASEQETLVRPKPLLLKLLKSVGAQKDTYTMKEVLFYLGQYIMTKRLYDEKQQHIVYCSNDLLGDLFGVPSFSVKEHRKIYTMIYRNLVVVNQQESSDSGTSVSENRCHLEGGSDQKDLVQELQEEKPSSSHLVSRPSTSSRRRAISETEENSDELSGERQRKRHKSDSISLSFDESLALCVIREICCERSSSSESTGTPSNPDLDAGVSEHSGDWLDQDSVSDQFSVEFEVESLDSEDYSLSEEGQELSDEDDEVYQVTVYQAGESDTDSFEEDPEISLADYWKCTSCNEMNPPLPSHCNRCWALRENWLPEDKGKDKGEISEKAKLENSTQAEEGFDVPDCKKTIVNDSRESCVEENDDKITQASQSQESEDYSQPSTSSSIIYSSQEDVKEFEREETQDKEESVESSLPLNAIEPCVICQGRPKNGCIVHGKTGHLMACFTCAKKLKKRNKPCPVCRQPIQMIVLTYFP
- Assay Text: Fluorescence polarisation competitive HDM2 binding assay
- Stated Conditions: fluorescence polarisation assay; Table 3; read-out: In vitro competitive HDM2 binding assay IC50
We begin with a simple list: items and their reported pIC50.
Would you please state pIC50, meaning minus log10 of the concentration in mol/L, as a bare number?

Here's what some known entries look like.
CC(NS(=O)(=O)c1cc([N+](=O)[O-])c(Cl)s1)c1ccc(F)cc1 (centres unmarked)    4.51
O=[N+]([O-])c1cc(S(=O)(=O)N(Cc2ccccc2)c2ccc(Cl)cc2)sc1Cl    5.13
Cc1ccc(NS(=O)(=O)c2cc([N+](=O)[O-])c(Cl)s2)cc1    4.46

Would you kindly look at the next entry?
*Q* Which pIC50 value belongs to `O=[N+]([O-])c1cc(S(=O)(=O)NCc2cc(F)cc(F)c2)sc1Cl` ?
*A* 4.57

###

- Test Target: HDM2 (Homo sapiens, UniProt Q00987)
- Construct: Recombinant HDM2 (1.5 μg per well) in TBS-BSA buffer
- Assay Text: Fluorescence polarisation competitive HDM2 binding assay
- Stated Conditions: fluorescence polarisation format; Table 1; read-out: IC50 In vitro competitive HDM2 binding assay
Value Type: IC50 (µM)
Write it as a number; the unit µM goes unstated.

Here's what some known entries look like.
CSc1ncc(-c2ccc(S(=O)(=O)Nc3cc(Cl)cc(Cl)c3)s2)cn1    374
O=S(=O)(Nc1cc(C(F)(F)F)cc(C(F)(F)F)c1)c1ccc(S(=O)(=O)c2ccccc2)s1    147
COCCNc1sc(S(=O)(=O)Nc2ccc(Cl)cc2)cc1[N+](=O)[O-]    154
O=[N+]([O-])c1cc(S(=O)(=O)Nc2cc(Cl)cc(Cl)c2)sc1Cl    46.1
CCOC(=O)c1[nH]c(C)c(S(=O)(=O)Nc2ccc(Cl)cc2)c1C    331
O=S(=O)(Nc1ccc(Cl)c(Cl)c1)c1ccc(Cl)s1    295
Cc1sc(S(=O)(=O)Nc2ccc(Cl)cc2)cc1S(=O)(=O)Nc1ccc(Cl)cc1    123
O=[N+]([O-])c1cc(S(=O)(=O)Nc2cc(F)cc(F)c2)sc1Cl    59.6
O=S(=O)(Nc1cc(C(F)(F)F)cc(C(F)(F)F)c1)c1cc(Br)c(Cl)s1    293
O=[N+]([O-])c1cc(S(=O)(=O)Nc2ccc(F)cc2)sc1Cl    41.9

*Q* Which IC50 value belongs to `O=[N+]([O-])c1cc(S(=O)(=O)N(Cc2cccc(C(F)(F)F)c2)c2ccc(Cl)cc2)sc1Cl` ?
*A* 8.5

*Q* Which IC50 value belongs to `O=[N+]([O-])c1cc(S(=O)(=O)NCc2cc(Cl)cc(Cl)c2)sc1Cl` ?
*A* 20.2

*Q* Which IC50 value belongs to `CC(=O)Sc1sc(S(=O)(=O)Nc2ccc(Cl)cc2)cc1[N+](=O)[O-]` ?
*A* 16.2

*Q* Which IC50 value belongs to `O=[N+]([O-])c1cc(S(=O)(=O)Nc2ccccc2)sc1Cl` ?
*A* 67

*Q* Which IC50 value belongs to `O=[N+]([O-])c1cc(S(=O)(=O)Nc2ccc(C(F)(F)F)cc2)ccc1Cl` ?
*A* 192

*Q* Which IC50 value belongs to `O=S(=O)(Nc1ccc(Cl)cc1)c1ccc(Cl)s1` ?
*A* 320

*Q* Which IC50 value belongs to `O=S(=O)(Nc1cc(C(F)(F)F)cc(C(F)(F)F)c1)c1cc2ccccc2s1` ?
*A* 193

*Q* Which IC50 value belongs to `O=[N+]([O-])c1cc(S(=O)(=O)Nc2nc3ccccc3[nH]2)ccc1Cl` ?
*A* 119

###

- System: p53
- Assay Text: p53 reporter gene assay (U2OS-derived luciferase reporter cell line)
- Stated Conditions: compared to basal luciferase activity, 16-h time point, at concentration of maximal induction
Value Type: Fold induction of luciferase activity (fold)
Write it as a number; the unit fold goes unstated.

Here's what some known entries look like.
COc1ccc(NS(=O)(=O)c2cc([N+](=O)[O-])c(Cl)s2)c(C)c1    5
COc1ccc(NS(=O)(=O)c2cc([N+](=O)[O-])c(Cl)s2)cc1    34
COc1ccc(N(Cc2ccccc2)S(=O)(=O)c2cc([N+](=O)[O-])c(Cl)s2)cc1    65
CN(c1ccc(F)cc1)S(=O)(=O)c1cc([N+](=O)[O-])c(Cl)s1    32

*Q* Query Fold induction of luciferase activity on p53 for `O=[N+]([O-])c1cc(S(=O)(=O)Nc2ccc(Cl)cc2)ccc1Cl`
*A* 4

*Q* Query Fold induction of luciferase activity on p53 for `O=[N+]([O-])c1cc(S(=O)(=O)N(Cc2ccccc2)c2ccc(Cl)cc2)sc1Cl`
*A* 74

*Q* Query Fold induction of luciferase activity on p53 for `O=[N+]([O-])c1cc(S(=O)(=O)NCc2ccc(F)cc2)sc1Cl`
*A* 67

*Q* Query Fold induction of luciferase activity on p53 for CC(NS(=O)(=O)c1cc([N+](=O)[O-])c(Cl)s1)c1ccc(F)cc1 (stereo not drawn)
*A* 25

*Q* Query Fold induction of luciferase activity on p53 for CC(Cc1c[nH]c2ccccc12)NS(=O)(=O)c1cc([N+](=O)[O-])c(Cl)s1 (stereo not drawn)
*A* 117

*Q* Query Fold induction of luciferase activity on p53 for `O=[N+]([O-])c1cc(S(=O)(=O)NCc2cc(F)cc(F)c2)sc1Cl`
*A* 53

###

- Tested on: SJSA-1
- Assay Text: Combination treatment with cisplatin or etoposide, MTT, SJSA-1
- Type: cell-based, human
- Stated Conditions: Homo sapiens, MTT, 72 hours, Table 6, read-out: IC50, agent alone
Value Type: IC50 (µM)
Write it as a number; the unit µM goes unstated.

*Q* Which IC50 value belongs to COc1cc([C@@H]2c3cc4c(cc3[C@@H](O[C@@H]3O[C@@H]5CO[C@@H](C)O[C@H]5[C@H](O)[C@H]3O)[C@H]3COC(=O)[C@H]23)OCO4)cc(OC)c1O [Etoposide, reference compound] ?
*A* 16

###

- Test Target: HDM2 (Homo sapiens)
- Construct: Recombinant HDM2 (1.5 μg per well) in TBS-BSA buffer
- Assay Text: Fluorescence polarisation competitive HDM2 binding assay
- Stated Conditions: fluorescence polarisation format; Table 1; read-out: IC50 In vitro competitive HDM2 binding assay
- Experimental: This was carried out using a 96-well microtiter plate (Costar) format. […] The fluorescence polarisation (excitation 485 nm, emission 520 nm) of the peptide was measured. IC50 values were calculated from dose-response curves. The fluorescence polarisation competitive HDM2 binding assay described in Example 3 was used. Furthermore, the anti-proliferative potency of the compounds against three human tumour cell lines with different genetic make-up was also determined. […]
We begin with a simple list: items and their reported pIC50.
Would you please state pIC50, meaning minus log10 of the concentration in mol/L, as a bare number?

Cc1ccc(S(=O)(=O)Nc2ccc(Cl)cc2)cc1[N+](=O)[O-] [Compound 37]    3.53
COc1ccc(S(=O)(=O)Nc2cc(C(F)(F)F)cc(C(F)(F)F)c2)cc1Cl [Compound 104]    3.82
O=[N+]([O-])c1ccc(S(=O)(=O)Nc2cc(C(F)(F)F)cc(C(F)(F)F)c2)cc1 [Compound 98]    3.68
O=[N+]([O-])c1cc(S(=O)(=O)Nc2ccc(Cl)c(Cl)c2)ccc1Cl [Compound 30]    3.37
O=[N+]([O-])c1ccc(S(=O)(=O)Nc2ccc(Cl)cc2)cc1 [Compound 97]    3.40
O=S(=O)(Nc1ccc(C(F)(F)F)cc1)c1ccc(Br)s1 [Compound 116]    3.82
O=[N+]([O-])c1cc(S(=O)(=O)N(Cc2ccc(C(F)(F)F)cc2)Cc2cccc(C(F)(F)F)c2)sc1Cl [Compound 75]    5.46
O=[N+]([O-])c1csc(S(=O)(=O)Nc2ccc(C(F)(F)F)cc2)c1 [Compound 76]    3.44
COc1ccc(S(=O)(=O)Nc2ccc(Cl)cc2)cc1Cl [Compound 103]    3.39
O=S(=O)(Nc1ccc(C(F)(F)F)cc1)c1ccc(S(=O)(=O)c2ccccc2)s1 [Compound 23]    3.84

*Q* Query pIC50 on HDM2 (Homo sapiens) for O=[N+]([O-])c1cc(S(=O)(=O)Nc2cc(C(F)(F)F)cc(C(F)(F)F)c2)sc1Cl [Compound 44]
*A* 4.60

*Q* Query pIC50 on HDM2 (Homo sapiens) for Nc1ccc(S(=O)(=O)Nc2cc(C(F)(F)F)cc(C(F)(F)F)c2)cc1Cl [Compound 99]
*A* 3.61

*Q* Query pIC50 on HDM2 (Homo sapiens) for O=S(=O)(Nc1ccc(Cl)cc1)c1ccc(S(=O)(=O)c2ccccc2)s1 [Compound 24]
*A* 3.61

*Q* Query pIC50 on HDM2 (Homo sapiens) for Cc1[nH]c(C(=O)O)c(C)c1S(=O)(=O)Nc1cc(C(F)(F)F)cc(C(F)(F)F)c1 [Compound 91]
*A* 3.32

*Q* Query pIC50 on HDM2 (Homo sapiens) for O=[N+]([O-])c1cc(S(=O)(=O)NCc2ccc(C(F)(F)F)cc2)sc1Cl [Compound 46]
*A* 4.95

*Q* Query pIC50 on HDM2 (Homo sapiens) for Cc1c(S(=O)(=O)Nc2ccc(Cl)c([N+](=O)[O-])c2)sc2ccc(Cl)cc12 [Compound 88]
*A* 3.76

*Q* Query pIC50 on HDM2 (Homo sapiens) for O=S(=O)(Nc1ccc(Cl)cc1)c1cc(S(=O)(=O)Nc2ccc(Cl)cc2)c(Cl)s1 [Compound 70]
*A* 3.87
